# refractive index listing for each entry below
# test: refractive index (Na D-line) (dimensionless)
# test_conditions: 303.15 K; 101.33 kPa; Liquid; Standard Abbe refractometry
Lab note: record just the number, no unit beside it.

>>> recorded_measurement("CC(C)O")
1.3724
>>> recorded_measurement("CC#N")
1.339
>>> recorded_measurement("CCCCC(C)O (stereo not given)")
1.4093
>>> recorded_measurement("CCCCCC(C)O (stereo not given)")
1.4165

Now, please, on to the next molecule.
# molecule CCC(C)O (stereo not given) ; its refractive index = 1.3924

----------
# viscosity listing for each entry below
# test_conditions: 308.15 K; 101 kPa; Liquid; Capillary tube (Ostwald / Ubbelohde) method
± gives the expanded uncertainty stated by the source.

>>> recorded_measurement("CCC(C)O (centres undefined)")
"2.172 ± 0.024 mPa·s"
>>> recorded_measurement("CC(C)O")
"1.532 ± 0.017 mPa·s"
>>> recorded_measurement("CCCCC(C)O (centres undefined)")
"2.819 ± 0.034 mPa·s"

# compound CCCCCC(C)O (centres undefined) ; its viscosity = 3.528 ± 0.044 mPa·s

----------
# test: refractive index (Na D-line) (dimensionless)
# test_conditions: 298.15 K; 101.33 kPa; Liquid; Standard Abbe refractometry
# refractive index listing for each entry below
Lab note: record just the number, no unit beside it.

// known answers, use as guide
>>> recorded_measurement("CCCCC(C)O (stereo unspecified)")
1.4116
>>> recorded_measurement("CC#N")
1.3411
>>> recorded_measurement("CCCCCC(C)O (stereo unspecified)")
1.4188

# molecule CC(C)O ; its refractive index = 1.3745

# molecule CCCC(C)O (stereo unspecified) ; its refractive index = 1.4045

# molecule CCC(C)O (stereo unspecified) ; its refractive index = 1.3946

----------
# test: refractive index (Na D-line) (dimensionless)
# test_conditions: 293.15 K; 101.33 kPa; Liquid; Standard Abbe refractometry
test_readout: refractive index
Lab note: record just the number, no unit beside it.

# compound CC#N ; its refractive index = 1.3436

# compound CCC(C)O (stereo unspecified) ; its refractive index = 1.3966

# compound CCCCC(C)O (stereo unspecified) ; its refractive index = 1.4135

# compound CCCC(C)O (stereo unspecified) ; its refractive index = 1.406

# compound CC(C)O ; its refractive index = 1.3766

# compound CCCCCC(C)O (stereo unspecified) ; its refractive index = 1.4206

The origin of these recorded values is the NIST ThermoML archive (doi:10.1016/j.tca.2009.06.015).
